# ASSAY_SYSTEM: glucosyltransferase (microsomes from normal liver) (Mus musculus)
# Sequence (O88693 whole entry): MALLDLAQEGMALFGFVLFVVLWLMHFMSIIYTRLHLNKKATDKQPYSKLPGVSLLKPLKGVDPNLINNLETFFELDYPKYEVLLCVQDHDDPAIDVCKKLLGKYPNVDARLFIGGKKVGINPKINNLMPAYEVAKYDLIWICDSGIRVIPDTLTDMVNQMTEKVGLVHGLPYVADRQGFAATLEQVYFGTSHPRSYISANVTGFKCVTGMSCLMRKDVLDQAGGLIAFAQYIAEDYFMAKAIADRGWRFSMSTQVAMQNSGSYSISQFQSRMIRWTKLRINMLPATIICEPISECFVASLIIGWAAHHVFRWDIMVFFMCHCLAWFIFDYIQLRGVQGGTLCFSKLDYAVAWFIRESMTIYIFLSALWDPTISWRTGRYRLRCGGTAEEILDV
QUANTITY: IC50 (µM)
Number only, in µM; omit the unit.

So what's the measured IC50 for this one? "CCCCCCCCCC(=O)N[C@H](CN1CCOCC1)[C@H](O)c1ccccc1"
5

###

# ASSAY_SYSTEM: glucosyltransferase (EATC enzyme) (Mus musculus, UniProt O88693)
# Construct: Microsomes from EATC (0.50 mg protein) required 20 μM PDMP to reduce the glucosyltransferase activity in half; endogenous in cells
# Sequence (O88693 whole entry): as above
# ASSAY_EXPLANATION: Glucosyltransferase assay, microsomes from EATC
QUANTITY: pIC50
Hey, just a heads up that pIC50 is the negative log base 10 of the concentration in molar.

glucosyltransferase (EATC enzyme) (Mus musculus, UniProt O88693) / pIC50 / "CCCCCCCCCC(=O)N[C@H](CN1CCOCC1)[C@H](O)c1ccccc1" : value?
4.70

Data origin, for the record: patent US5041441A
